# Tested on: RCC-JW (Kidney Carcinoma)
# ASSAY_COMMENT: combination Emax (second highest fraction inhibited in the dose matrix, 72 h); higher = more inhibition; extreme values may be limits of the assay
# combination Emax listing for each entry below
The response must contain the number and no unit.

Recorded results for 3 molecules are shown here.
Cc1c2c(nn1C)CSCc1cc(n(C)n1)CSc1cc(c3ccccc3c1)OCCCc1c(C(=O)O)n(C)c3c-2c(Cl)ccc13 [AZD5991] + CC1(C)CCC(CN2CCN(c3ccc(C(=O)NS(=O)(=O)c4ccc(NCC5CCOCC5)c([N+](=O)[O-])c4)c(Oc4cnc5[nH]ccc5c4)c3)CC2)=C(c2ccc(Cl)cc2)C1 [Venetoclax] (first compound max 1 µM, 7x7, partner max 1 µM): 0.23
CC1(C)CCC(CN2CCN(c3ccc(C(=O)NS(=O)(=O)c4ccc(NCC5CCOCC5)c([N+](=O)[O-])c4)c(Oc4cnc5[nH]ccc5c4)c3)CC2)=C(c2ccc(Cl)cc2)C1 [Venetoclax] + CN(C)CCCOc1ccc(-c2ccc3ncc4c(c3c2)n(C2CCOCC2)c(=O)n4C)cn1 [AZD0156] (first compound max 1 µM, 7x7, partner max 1 µM): 0.184
Cc1c2c(nn1C)CSCc1cc(n(C)n1)CSc1cc(c3ccccc3c1)OCCCc1c(C(=O)O)n(C)c3c-2c(Cl)ccc13 [AZD5991] + C[C@@H](Nc1cc(F)cc(F)c1)c1cc(C(=O)N(C)C)cc2c(=O)cc(N3CCOCC3)oc12 [AZD8186] (first compound max 1 µM, 7x7, partner max 3 µM): 0.461

Summary line: CN(CCO)CC[C@H](CSc1ccccc1)Nc1ccc(S(=O)(=O)NC(=O)c2ccc(N3CCC([C@@H](O)c4ccccc4-c4ccc(Cl)cc4)CC3)cc2)cc1S(=O)(=O)C(F)(F)F [AZD4320] + C[C@@H](Nc1cc(F)cc(F)c1)c1cc(C(=O)N(C)C)cc2c(=O)cc(N3CCOCC3)oc12 [AZD8186] (first compound max 1 µM, 7x7, partner max 3 µM) , RCC-JW (Kidney Carcinoma), reported combination Emax = 0.817

For the molecule CCc1c2c(nc3ccc(O)cc13)-c1cc3c(c(=O)n1C2)COC(=O)[C@]3(O)CC [SN-38] + CN(C)CCCOc1ccc(-c2ccc3ncc4c(c3c2)n(C2CCOCC2)c(=O)n4C)cn1 [AZD0156] (first compound max 0.3 µM, 7x7, partner max 1 µM) , the measured combination Emax on RCC-JW (Kidney Carcinoma) was 0.656

Summary: COc1nnc2ccc(N3CCC(c4ccc(OCCN5CCN(C)C(=O)[C@H]5C)cc4)CC3)nn12 [AZD5153] + Cc1c2c(nn1C)CSCc1cc(n(C)n1)CSc1cc(c3ccccc3c1)OCCCc1c(C(=O)O)n(C)c3c-2c(Cl)ccc13 [AZD5991] (first compound max 1 µM, 7x7, partner max 1 µM) , RCC-JW (Kidney Carcinoma), combination Emax = 0.3

* * *

# System: SiHa (Cervical Carcinoma)
# ASSAY_COMMENT: combination Emax (second highest fraction inhibited in the dose matrix, 72 h); higher = more inhibition; extreme values may be limits of the assay
ENDPOINT_NAME: combination Emax
Lab note: jot the number down without any unit.

CCN(CCO)CCCOc1ccc2c(Nc3cc(CC(=O)Nc4cccc(F)c4)[nH]n3)ncnc2c1 [AZD2811] + C[C@@H]1COCCN1C2=NC(=NC(=C2)C3(CC3)[S@](=N)(=O)C)C4=C5C=CNC5=NC=C4 [AZD6738] (first compound max 1 µM, 7x7, partner max 10 µM): 0.225

Next:
Just so you know, measured combination Emax for Cc1cc2ncnn2cc1Nc1ncc2c(n1)n(C1CCOCC1)c(=O)n2C [AZD7648] + CCN(CCO)CCCOc1ccc2c(Nc3cc(CC(=O)Nc4cccc(F)c4)[nH]n3)ncnc2c1 [AZD2811] (first compound max 10 µM, 7x7, partner max 1 µM) came out at 0.335

* * *

# Tested on: T84 (Colorectal Carcinoma)
# ASSAY_COMMENT: combination Emax (second highest fraction inhibited in the dose matrix, 72 h); higher = more inhibition; extreme values may be limits of the assay
ENDPOINT_NAME: combination Emax
Lab note: jot the number down without any unit.

CN(C)CCCOc1ccc(-c2ccc3ncc4c(c3c2)n(C2CCOCC2)c(=O)n4C)cn1 [AZD0156] + O=C(c1cc(Cc2n[nH]c(=O)c3ccccc23)ccc1F)N1CCN(C(=O)C2CC2)CC1 [Olaparib] (first compound max 3 µM, partner max 3 µM): 0.353
N#Cc1cnc(Nc2cc(NC[C@H]3CNCCO3)c(C(F)(F)F)cn2)cn1 [SRA737] + C=CCn1c(=O)c2cnc(Nc3ccc(N4CCN(C)CC4)cc3)nc2n1-c1cccc(C(C)(C)O)n1 [AZD1775] (first compound max 10 µM, partner max 1 µM): 0.853
CN(C)CCCOc1ccc(-c2ccc3ncc4c(c3c2)n(C2CCOCC2)c(=O)n4C)cn1 [AZD0156] + C[C@@H]1COCCN1C2=NC(=NC(=C2)C3(CC3)[S@](=N)(=O)C)C4=C5C=CNC5=NC=C4 [AZD6738] (first compound max 1 µM, 7x7, partner max 10 µM): 0.668

Attention now shifts to the item below.
For reference, reported combination Emax for C=CCn1c(=O)c2cnc(Nc3ccc(N4CCN(C)CC4)cc3)nc2n1-c1cccc(C(C)(C)O)n1 [AZD1775] + Nc1ccn([C@@H]2O[C@H](CO)[C@@H](O)C2(F)F)c(=O)n1 [Gemcitabine] (first compound max 1 µM, partner max 0.3 µM) stands at 0.85

* * *

# key: entry, value: combination Emax
# System: T47D (Breast Carcinoma)
# ASSAY_COMMENT: combination Emax (second highest fraction inhibited in the dose matrix, 72 h); higher = more inhibition; extreme values may be limits of the assay
Form field (numeric): enter value without unit.

See these solved cases before continuing.
COc1nnc2ccc(N3CCC(c4ccc(OCCN5CCN(C)C(=O)[C@H]5C)cc4)CC3)nn12 [AZD5153] + Cn1cnc2c(F)c(Nc3ccc(Br)cc3Cl)c(C(=O)NOCCO)cc21 [Selumetinib] (first compound max 1 µM, 7x7, partner max 10 µM): 0.549
COc1cccc(OCCCN)c1-c1cc(Nc2cnc(C#N)cn2)n[nH]1 [Prexasertib] + CN(C)CCCOc1ccc(-c2ccc3ncc4c(c3c2)n(C2CCOCC2)c(=O)n4C)cn1 [AZD0156] (first compound max 1 µM, 7x7, partner max 1 µM): 0.426
C[C@@H](c1ccc2nccn2c1)n1nnc2ncc(-c3cnn(C)c3)nc21 [Savolitinib] + CC1(C)CCC(CN2CCN(c3ccc(C(=O)NS(=O)(=O)c4ccc(NCC5CCOCC5)c([N+](=O)[O-])c4)c(Oc4cnc5[nH]ccc5c4)c3)CC2)=C(c2ccc(Cl)cc2)C1 [Venetoclax] (first compound max 1 µM, 7x7, partner max 1 µM): 0.153

Form field combination Emax, entry CC(=O)c1c(C)c2cnc(Nc3ccc(N4CCNCC4)cn3)nc2n(C2CCCC2)c1=O [Palbociclib] + Cc1c2c(nn1C)CSCc1cc(n(C)n1)CSc1cc(c3ccccc3c1)OCCCc1c(C(=O)O)n(C)c3c-2c(Cl)ccc13 [AZD5991] (first compound max 10 µM, 7x7, partner max 1 µM) : 0.413

* * *

# System: LCLC-103H (Non-Small Cell Lung Carcinoma)
# ASSAY_COMMENT: combination Emax (second highest fraction inhibited in the dose matrix, 72 h); higher = more inhibition; extreme values may be limits of the assay
Decision: combination Emax compared against 0.6; not below it gives Satisfied, below it gives Not satisfied.

The examples below pair each entry with its known result.
Cc1nc(Nc2ncc(C(=O)Nc3c(C)cccc3Cl)s2)cc(N2CCN(CCO)CC2)n1 [Dasatinib] + CC(=O)Nc1cccc(-n2c(=O)n(C3CC3)c(=O)c3c(Nc4ccc(I)cc4F)n(C)c(=O)c(C)c32)c1 [Trametinib] (first compound max 2 µM, 7x7, partner max 1 µM): Not satisfied
N#Cc1cnc(Nc2cc(NC[C@H]3CNCCO3)c(C(F)(F)F)cn2)cn1 [SRA737] + O=c1[nH]cc(F)c(=O)[nH]1 [5-Fluorouracil] (first compound max 10 µM, 7x7, partner max 20 µM): Not satisfied
Cc1cc2ncnn2cc1Nc1ncc2c(n1)n(C1CCOCC1)c(=O)n2C [AZD7648] + CN(C)CCCOc1ccc(-c2ccc3ncc4c(c3c2)n(C2CCOCC2)c(=O)n4C)cn1 [AZD0156] (first compound max 10 µM, 7x7, partner max 1 µM): Not satisfied

Check this molecule for combination Emax at or above 0.6: COc1cccc(OCCCN)c1-c1cc(Nc2cnc(C#N)cn2)n[nH]1 [Prexasertib] + CCc1c2c(nc3ccc(O)cc13)-c1cc3c(c(=O)n1C2)COC(=O)[C@]3(O)CC [SN-38] (first compound max 1 µM, 7x7, partner max 0.3 µM)
Satisfied

Is the recorded value of combination Emax equal to or greater than 0.6 for this molecule? CN(CCO)CC[C@H](CSc1ccccc1)Nc1ccc(S(=O)(=O)NC(=O)c2ccc(N3CCC([C@@H](O)c4ccccc4-c4ccc(Cl)cc4)CC3)cc2)cc1S(=O)(=O)C(F)(F)F [AZD4320] + Nc1ccn([C@@H]2O[C@H](CO)[C@@H](O)C2(F)F)c(=O)n1 [Gemcitabine] (first compound max 1 µM, 7x7, partner max 0.3 µM)
Satisfied

Check the entry COc1cc2c(cc1OCCCCCOc1cc3c(cc1OC)C(=O)N1C=C(C)C[C@H]1C=N3)N=C[C@@H]1CC(C)=CN1C2=O [SG3199] + O=C(c1cc(Cc2n[nH]c(=O)c3ccccc23)ccc1F)N1CCN(C(=O)C2CC2)CC1 [Olaparib] (first compound max 0.001 µM, 7x7, partner max 10 µM) : does combination Emax equal or exceed 0.6?
Not satisfied

Record C[C@@H](Oc1cc(-c2cnn(C3CCNCC3)c2)cnc1N)c1c(Cl)ccc(F)c1Cl [Crizotinib] + CC1=C(C(=CC=C1)Cl)NC(=O)C2=CN=C(S2)NC3=CC(=NC(=N3)C)N4CCN(CC4)CCO [Dasatinib] (first compound max 10 µM, 7x7, partner max 2 µM) ; criterion: combination Emax no lower than 0.6. Met?
Satisfied
